Reference source for all entries: patent US20260176365A1

Biological target: hGP130-his (Sino Biological, Catalog# 10974) (human) (UniProt P40189)
Sequence (P40189 23-619): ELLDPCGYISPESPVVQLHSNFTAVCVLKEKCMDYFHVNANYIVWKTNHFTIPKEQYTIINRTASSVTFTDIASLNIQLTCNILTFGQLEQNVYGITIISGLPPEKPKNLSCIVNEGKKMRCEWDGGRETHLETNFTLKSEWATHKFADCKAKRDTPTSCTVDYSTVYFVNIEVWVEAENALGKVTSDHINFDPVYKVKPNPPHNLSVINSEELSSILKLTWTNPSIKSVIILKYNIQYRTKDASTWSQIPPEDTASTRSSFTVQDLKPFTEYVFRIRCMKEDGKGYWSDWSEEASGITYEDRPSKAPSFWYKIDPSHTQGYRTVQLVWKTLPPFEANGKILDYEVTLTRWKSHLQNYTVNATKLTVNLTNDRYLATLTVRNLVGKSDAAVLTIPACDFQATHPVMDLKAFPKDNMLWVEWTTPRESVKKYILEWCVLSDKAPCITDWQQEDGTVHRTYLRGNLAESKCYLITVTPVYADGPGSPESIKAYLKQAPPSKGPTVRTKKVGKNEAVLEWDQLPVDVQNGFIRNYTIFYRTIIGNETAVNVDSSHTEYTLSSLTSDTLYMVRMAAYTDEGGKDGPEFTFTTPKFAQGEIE
Test: SPR (Biacore T200), Mono-Fc VHH captured on Protein A chip, hGP130-his in solution, 1:1 fit
READOUT: Kd (nM)
Reply with just the number (in nM).

mgp130_VHH44 Mono-Fc VHH (Fc fusion, not shown: a dimerising Fc or GST) QVQLQESGGGLVQPGGSLRLSCTASGFTFNSAHLKWERQPPGKGLEWVSFITNGGASTGYADSVKGRFTISRDDAKNTLYLQMNNLKTEDTAVYYCATGGLRGQGTQVTVSS; 6

Kd measured on mgp130_VHH48 Mono-Fc VHH (Fc fusion, not shown: a dimerising Fc or GST) QVQLQESGGALVQPGGSLRLSCAASGFTFSYYAMKWVRQAPGKGLEWVSSISGGGGATYYADSVKGRFTISRDNTNDTLYLQMNSLKTEDTAVYYCAAQNLDYRGQGTQVTVSS = 42
